Source: the nanobody polyreactivity screen of Harvey et al. (2022)

- Test description: yeast display, Sf9 membrane polyspecificity reagent, FACS + sequencing; frameworks hold sequencing errors
Quantity measured: polyreactivity (PSR sort gate)

Sequence text	polyreactivity (PSR sort gate)
QVQLVEAGGGLVQAGGSLRLSCGASGRIFQSNAMGGYRLAPGKERELVAAISKSGGSTYYADSVKGRFTISRDNAKNTVYLQMNSLKPEDPAVYYCAAYPPRRMYYWGQGTQVTVSS	high polyreactivity
QVQLVESGGGLVQAGGSLRISCAASGITASNAMGWNRQAPGKERELVAAISCRGGRTYYADSVKGRFTISRDNAKNTVYLQMNSLKPEDTAVYYCAKRYYTAQSRSDYWGQGTQVTVSS	high polyreactivity
QVQLVESGGGLVQAGGSLRLSCAASGSIFGGYAMGWYRQAPGKERELVAAISYRGASTYYADSVKGRFTISRDNAKNTVYLQMNSLKPEDTAVYYCAARHDKRRQYYVGQSAFDYWGQGTQVTVSS	low polyreactivity
QDQLVESGGGLVQAGGSLRLTCAASGSIIVRYAMGWYRQAPGKERELVASISKRGGSTYYADSVKGRFTISRDNAKNTVYLQMNSLKPEDTAVYYCAAVGYYLVKFDYWGQGTQVTVSS	high polyreactivity
QVQLGESGGGLVQAGGSLRLSCAASGRIFRTNAMGWYRQAPGKERELVAAITFSGGGTYYADSVKGRFTISRDNAKNTVYLQMNSLKPEDTAVYYCATDWYYEYYDWGQGTQVTVSS	low polyreactivity
QVQLVESGGGLVQAGGSLRLSCAASGSIFEIYAMGWYRQAPGKERELVAAISWSGGRTYYADSVKGRFTISRDNAKNTVYLQMNSLKPEDTAVYYCNAGQWRYPGLYYYWGQGTEVTVSS	high polyreactivity

Q: Write down polyreactivity (PSR sort gate) measured for item QVQLVESGGGLVQAGGSLRLSCAASGSTFDRYDMVWYRQAPGKETELVAAITRRGGSTYYADSVKGRFTFSRDNAKNTVYLQMNSLQPEDTAVYYCNAKHFAYSVAHPYLRYGYDYWGQGTHVTVSS
Ans: low polyreactivity

Q: Write down polyreactivity (PSR sort gate) measured for item QVQIVESGGGLVQAGGSLRLSCASSGSTSYRNAMGWYRQAPGKEREFVASISKSTDSTYYADSVKGRFTISRDNAKNTVYLQMLSLKPEDTAVSYCADVQGYKGLQDDSWGQGTQVTVSS
Ans: high polyreactivity

Q: Write down polyreactivity (PSR sort gate) measured for item QVQLVESGGGLVQAGGSLRLSCAASGRTFTVYPMGWYRQAPVKEREFVAAITERGGSTYYADSVKGRFTISRDNAKNTVYLQMNSLKPEDTAVYYCAAVYYWRPGWYVRFDYWGQGTQVTVSS
Ans: low polyreactivity

Q: Write down polyreactivity (PSR sort gate) measured for item QVQLVESGGGLVQAGGSLRLSCAASGSIFTVYAMGWSRQAPGKERELVAAITSGGSTNYADSVKGRFTISRDNAKNTVYLQMNSLKPEDTAVYDCNAVWRYGSARYGYWGQGTQVTVSS
Ans: low polyreactivity

Q: Write down polyreactivity (PSR sort gate) measured for item QVQLVESGGGLVQAGGSLRLSCAACGSTFSVHAMGWYRQAPGKERELVAAISWGGTSTYYADSVKGRFTISRDNAKNTVYLQMNSLKPEDTAVYYCAAVSRGKVNTVYYWGQGTQVTVSS
Ans: high polyreactivity
